So I've got a bunch of sequences here, and I need their apparent KD of MS2 coat protein values.
Test system: MS2 coat protein
Experiment: apparent KD of MS2 coat protein; designed switch direction (-1 OFF switch, 1 ON switch): 1; higher = weaker reporter binding
Details: Eterna round: R95; input ligand: none
Give bare numbers, in nM.

The cases that follow already have their apparent KD of MS2 coat protein on record.
seq.text	apparent KD of MS2 coat protein, nM
GUAGAUAUAGAGGAGGAUAUUCGAUGAGGAACAUGAGGAUCACCCAUGUAAGAGAGAGAUGAUGAGAAGAAGGCUUAGAGGGAUG [Altered State 2-4 - Jieux - Same State 2] (puzzle: Same State 2)	36.4
UUAAAACAUGAGGAUCACCCAUGUAAUAAUAUGGGAGGAUAUCAGAAUGUAUGUAUGUAAUGAGAAGGCCUAAAUU [Mat - Same State 1 - Mod of Eli - D76] (puzzle: Same State 1)	1280
AACAAUCUAUCUGAGGAUAUCAUGAAAUAAACAUGAGGAUCACCCAUGUGCAGGAAAACUGCAUAUGAGAAGGCAGAUUGAUUGA [salish99_ss2_r3_054] (puzzle: Same State 2)	1280

The following sequences each have a reported value; give each one's apparent KD of MS2 coat protein.
1. AUUAAACAUGAGGAUCACCCAUGUCAACAAAGUCGAGGAUAUGGGCAUAUUAUCUAAUAACCAGAAGGCGAAUAAU [salish99_ss1_r3_085] (puzzle: Same State 1)
2. UCUUGGUUUUUGCUCGUUUUUUGUGUUGAACAUGAGGAUCACCCAUGUAUUGUACGGUCCGGUUUGAUAGUGGUCCA [JMF 45] (puzzle: Sensor for hsa-mir-208a)

Result:
[210, 120]

====

Tested on: MS2 coat protein
Test: apparent KD of MS2 coat protein; higher = weaker reporter binding
Details: Eterna round: R107; input ligand: theophylline 2 mM
So I've got a bunch of sequences here, and I need their apparent KD of MS2 coat protein values.
One number for each entry, in nM.

The cases that follow already have their apparent KD of MS2 coat protein on record.
seq.text	target.entity	readout.value
ACAUGAGGAUCACCCAUGUCAUGAGGUUCACGAGGACCGGUACGGCCGCCACUCGGGCUUCGGAUCACGGAUGUACAUGAUGAUC [kmullin1]	MS2 coat protein	123
ACAUGAGGAUCACCCAUGUAUCAACGGGAAGGAGCGCCAAACAAGGCAGGUAGGUCGCCCACAUGAGGAUCACCCGUGUGUUGGG [Exclusion Arginine A GF 30]	MS2 coat protein	43.9
GCACGACAUGAGGAUCACCCAUGUGCAGAUACCAGUAAUGUAUGUUACCCUUGGCAGCUGAGUAGGUCUGGAGGGCUAUAGGUUU [Same State Theophylline A GF13]	MS2 coat protein	15.6
AAGUGGCACGGAAGGAGCGAGUUUGCCUAUUACAUGAGGAUCACCCAUGUGGGUAAUGGGACUCAGGUAGGUCGCCGUUGUCACU [Same State Arginine B GF 26]	MS2 coat protein	42
ACAUGAGGAUCACCCAUGUGGCGAGUUGAUACCAGACCCGCACUAGUCCCUUGGCAGCAACUACGUGUGGGACACCCAUGUUAAG [qpqmullin]	MS2 coat protein	77.1

Switching to the query record.
Ask: Given AGAUUCGACACGGCCGCCACUUUCAGUGGCUGGUCACAUGGUGCACAUGAGGAUCACCCAUGUGGAAGGACCGGGUGUUGAGUCU [XTryp B #25] , state its recorded apparent KD of MS2 coat protein.
Result: 38.3
